Please provide measured cytotoxicity at 10 µM for the entries that follow.
experiment.summary: Toxicity liver stage against HepG2, at 10uM
Assay type: cell-based
Parameters: test concentration 10 uM, cell line HepG2-A16-CD81EGFP
experimental.parameters: human, HepG2-A16-CD81EGFP cells; read-out: INHIBITION
All answers are understood in %, so give the number only.

q: Look up and report measured cytotoxicity at 10 µM for this entry: Cc1ccccc1N1CC(C)N(Cc2ccc(C)c(F)c2F)CC1=O (configuration not stated)
a: -1.66

q: Look up and report measured cytotoxicity at 10 µM for this entry: CCC(=O)c1ccc(OCC(=O)NC(C)c2nnc(C)[nH]2)cc1 (configuration not stated)
a: 5.37

q: Look up and report measured cytotoxicity at 10 µM for this entry: CCn1nc2c(cc1=O)CN(Cc1nc(-c3ccoc3)no1)CC2
a: 4.9

q: Look up and report measured cytotoxicity at 10 µM for this entry: Cc1cccc(NCCOc2cccc(C#N)c2)c1C(N)=O
a: -3.59

q: Look up and report measured cytotoxicity at 10 µM for this entry: CC(C)(C)CN1CCC(c2nnc(Cn3ccnc3)n2C2CC2)CC1
a: -5.02

q: Look up and report measured cytotoxicity at 10 µM for this entry: Cc1ccc(N2CCCC3(COCCN(c4ccccn4)C3)C2)nn1 (configuration not stated)
a: -119

q: Look up and report measured cytotoxicity at 10 µM for this entry: Cc1cc(C(=O)N2C[C@@H]3C(CN(C)CCCn4cccn4)[C@@H]3C2)c(C)o1 (some centres not stated)
a: -55.4

q: Look up and report measured cytotoxicity at 10 µM for this entry: CC(C)N(C)Cc1nnc2n1CCCN(C(=O)C1CCCO1)C2 (configuration not stated)
a: 19

q: Look up and report measured cytotoxicity at 10 µM for this entry: CSc1ccccc1C(=O)NCCC(O)c1ccco1 (configuration not stated)
a: -9.95

q: Look up and report measured cytotoxicity at 10 µM for this entry: COc1cccc(OCc2cc(C(=O)NC[C@@H]3CCCN3)n[nH]2)c1
a: 0.732

q: Look up and report measured cytotoxicity at 10 µM for this entry: CCn1cc(S(=O)(=O)Nc2ccc3[nH]c(C4CCC4)nc3c2)cn1
a: 1.45

q: Look up and report measured cytotoxicity at 10 µM for this entry: Cc1nc(C(Cc2ccsc2)NC(=O)CCN2CCOCC2)sc1C (configuration not stated)
a: 7.04

q: Look up and report measured cytotoxicity at 10 µM for this entry: CN1CCOC(CN(C(=O)CCc2cnn(C)c2)c2nccs2)C1 (configuration not stated)
a: -10.2

q: Look up and report measured cytotoxicity at 10 µM for this entry: CC(C)(C#N)c1ccc(NS(=O)(=O)CC2CCCCO2)cc1 (configuration not stated)
a: 0.548

q: Look up and report measured cytotoxicity at 10 µM for this entry: Cc1ccc(NC(=O)Cn2ncc(SCC(N)=O)c(Cl)c2=O)c(F)c1
a: -7.21

q: Look up and report measured cytotoxicity at 10 µM for this entry: Cc1nnc(NCC(c2ccco2)N2CCCC2)c(C#N)c1C (configuration not stated)
a: -3.04

q: Look up and report measured cytotoxicity at 10 µM for this entry: O=C1CCCCN1c1cccc(CNC2CCCC2)c1
a: 6.86

====

Please provide measured cytotoxicity at 10 µM for the entries that follow.
experiment.summary: Toxicity liver stage against HepG2, at 10uM
Type: cell-based
Design: test concentration 10 uM, cell line HepG2-A16-CD81EGFP
experimental.parameters: human, HepG2-A16-CD81EGFP cells; read-out: INHIBITION
All answers are understood in %, so give the number only.

q: Look up and report measured cytotoxicity at 10 µM for this entry: O=C1NCC2(CCCN(C(=O)c3csc(-c4cccs4)n3)C2)O1 (stereo not drawn)
a: 0.55

q: Look up and report measured cytotoxicity at 10 µM for this entry: O=C1CCC2(CCCN(c3ncc(F)cn3)CC2)N1Cc1ccccc1 (stereo not drawn)
a: 2.87

q: Look up and report measured cytotoxicity at 10 µM for this entry: Cc1nc(C)n(CC2CCCN2CC(=O)NCCc2ccsc2)n1 (stereo not drawn)
a: 0.932
